- Test system: ppGalNAc-T3 sensor
- assay.protocol: T3 sensor activation Q score (MG/GFP ratio z-score vs DMSO controls) (SD units); higher = more sensor activation (inhibition of ppGalNAc-T3 glycosylation)
- cond: HEK293 sensor cells; 10 µM; 6 h
In all, about 1,700 compounds were measured (“T3 sensor activation Q score (MG/GFP ratio z-score vs DMSO controls)”: median about 0.25, highest 2% from about 1.9 on). The sample holds the highest values, similar compounds and a random draw of the others, so the mix is not that of the screen.

structure.string	measurement.target	T3 sensor activation Q score
O=c1cc(-c2ccccc2)oc2ccc(O)cc12	ppGalNAc-T3 sensor	0.15
CCOC(=O)c1cc[nH]c1CC(=O)NC	ppGalNAc-T3 sensor	0.6
C/C(=N\NC(=S)N1CC2CCC(CC2)C1)c1cnccn1	ppGalNAc-T3 sensor	-1.2
C=CCN=C(NC#N)SC	ppGalNAc-T3 sensor	0.05
O=C(Nc1ccc(Nc2ccncc2)cc1)c1ccc([N+](=O)[O-])cc1	ppGalNAc-T3 sensor	0.75
OCCCCc1nccc2c1[nH]c1ccccc12	ppGalNAc-T3 sensor	1
CC(C)(C)c1ccc(C(=O)N2CCOC23CCCCC3)cc1	ppGalNAc-T3 sensor	1.85
CC(C)(C)NC(=O)c1ccc(C(=O)NC(C)(C)C)cc1	ppGalNAc-T3 sensor	-0.4
O=C(Nc1ccc(Nc2ccncc2)cc1)c1ccc(Nc2ccnc3ccc([N+](=O)[O-])cc23)cc1	ppGalNAc-T3 sensor	9.85
O=S1(=O)CSCS(=O)(=O)C1	ppGalNAc-T3 sensor	-0.85

###

- Tested on: ppGalNAc-T3 sensor
- assay.protocol: T3 sensor activation Q score (MG/GFP ratio z-score vs DMSO controls) (SD units); higher = more sensor activation (inhibition of ppGalNAc-T3 glycosylation)
- cond: HEK293 sensor cells; 10 µM; 6 h
In all, about 1,700 compounds were measured (“T3 sensor activation Q score (MG/GFP ratio z-score vs DMSO controls)”: median about 0.25, highest 2% from about 1.9 on). The full list was thinned out, with the highest values kept by preference.
Assign yes whenever T3 sensor activation Q score does not fall below 0.8; assign no whenever it does.

compound	qualitative.label
O=C1/C(=C\c2ccc([N+](=O)[O-])cc2)CCc2ccccc21	no
Cn1c(=O)c2c(nc(Cc3ccccc3)n2C)n(C)c1=O	yes
c1ccc2[nH]c(CCCCCc3nc4ccccc4[nH]3)nc2c1	no
Cc1ccc(-n2nnnc2-c2cccnc2)cc1	no
C1CCc2nc3c(nc2C1)CCCC3	no
COc1cccc(/C=C2\CCc3ccccc3C2=O)c1	no
C=CCNC(=S)Nc1c(N)n(C)c(=O)n(C)c1=O	no
COc1cc2c(c(OC)c1O)C(=O)CO2	yes
COC(=O)c1c[n+]([O-])ccc1OC	no
O=C1c2ccccc2NC(c2cc(Cl)cc(Cl)c2O)N1CCc1ccccn1 (stereo not given)	no
CCOC(=O)Nc1cc2c(c(N)n1)N=C(c1ccccc1)CN2	yes
CCCCCCCC1(C)NC(=O)NC1=O (stereo not given)	no
O=C(N(c1ccccc1)c1ccccc1)N(c1ccccc1)c1ccccc1	yes
COc1ccc(OC)c(NC(=O)c2cc3oc4ccccc4c3cc2O)c1	no
COc1ccccc1NC(=O)c1cc2ccccc2cc1O	no
O=C(Nc1ccc(O)c(C(=O)O)c1)Oc1ccccc1	yes
CCOC(=O)Nc1csnn1	no
CN1C(=C=Cc2cc(I)c(O)c(I)c2)C(C)(C)c2ccccc21	yes
Cc1cc(C)c(C#N)c(Sc2nc(C)c([N+](=O)[O-])c(C)c2C#N)n1	no
CCC(C)NC(=O)c1cccc(C)c1 (stereo not given)	yes
c1ccc2c(c1)[nH]c1c3ccccc3sc21	no
Cc1nnc2nc(N)[nH]n2c1=O	no
Cc1ccn(C)c(=N)c1	yes
O=c1cc(-c2cccnc2)oc2c1ccc1ccccc12	yes
O=c1cc(-c2ccc(Cl)cc2)[nH]c2ccccc12	no
